Tested System: UniProtKB Q969S2
Sequence (Q969S2 whole entry): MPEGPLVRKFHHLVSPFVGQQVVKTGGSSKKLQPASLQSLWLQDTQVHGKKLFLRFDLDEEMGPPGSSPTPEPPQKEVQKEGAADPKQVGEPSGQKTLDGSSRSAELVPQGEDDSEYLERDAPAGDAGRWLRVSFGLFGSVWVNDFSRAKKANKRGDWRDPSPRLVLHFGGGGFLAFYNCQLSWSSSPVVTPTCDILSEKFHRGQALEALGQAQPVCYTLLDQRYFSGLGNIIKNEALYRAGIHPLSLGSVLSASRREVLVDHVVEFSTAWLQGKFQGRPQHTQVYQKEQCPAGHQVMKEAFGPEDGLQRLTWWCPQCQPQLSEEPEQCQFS
Condition Info: Compound Concentration 10.0 uM, Hit No;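 also: fluorescence at 594 nm reports NEIL2 cutting and release of a quenched double-stranded DNA oligo substrate, reduced signal read as inhibition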
Description: Inhibition of NEIL2 by quantifying inhibition of NEIL2-mediated cleavage and dissociation of quenched duplex DNA oligonucleotides, measured as fluorescence at 594 nm.
Property Name: inhibition (%)
All answers are understood in %, so give the number only.

Name the recorded inhibition for O=C(O)CCCCCC[C@H]1C(=O)NC(=O)N1CCC(O)C1CCCCC1 (stereo not given in full) .
-1.37

Endpoint output: inhibition of CN(C)C(=O)Cn1cc(-c2nc(C3(c4ccc(-c5cnc(N)nc5)cc4)CC3)no2)cn1 . Value?
0.0213

Reported inhibition, molecule CNc1nc(NCc2ccc(NS(C)(=O)=O)cc2Cl)cc(-c2ccccn2)n1 : ____
7.25

Quick check: inhibition of O=C1N/C(=N/c2ccccc2F)S/C1=C\c1ccc(C(=O)O)cc1 ?
3.51

What value of inhibition has been reported for the following molecule? O=C(O)c1ccccc1S(=O)(=O)NCCCCN1C(=O)c2cccc3cccc(c23)C1=O
8

For CC(=O)Nc1ncc(CN2CCC[C@H](Cc3cc(C)nc(C)c3)C2)s1 , what is its reported inhibition?
-5.08

// inhibition lookup, key: CCOC(=O)C1=C(C)NC(C)=C(C(=O)OC)C1c1cccc([N+](=O)[O-])c1 (stereo not given)
-2.39

Entry under review: O=C(Nc1ccc(Cl)nc1)c1ccc(Cl)cc1 . Reported inhibition?
5.25

So what does the record say about inhibition for COCCc1ccc(-c2c(C)nc3c(N4CCOCC4)ccnn23)cn1 ?
0.531

Entry CCC[C@@H]1CNCc2c1[nH]c(=O)c(C#N)c2N1CCC2(CC1)CC2 : reported inhibition = ?
-5.59

// query inhibition value for entry Cc1cc(OC2CCS(=O)(=O)CC2)cc(C)c1-c1cccc(COc2ccc(C(=O)O)c(F)c2)c1
-1.51

State the recorded inhibition for this entry: CN(C(=O)Cc1ccc(Cl)c(Cl)c1)C(CN1CCCC1)c1cccc(OCC(=O)O)c1 (stereo not given)
-9.22

Record request: inhibition value, item CC(C1CC2CCC1C2)n1c(S)nnc1-c1ccco1 (stereo not given)
9.84

Quick one: inhibition of Cc1c(N2CCCC2)nc2ccc(Br)cc2c1C(=O)NC[C@H](CCC(=O)O)c1ccccc1Cl ?
-0.744

Name the reported inhibition value associated with the molecule Cc1nc(-c2ccc(C(F)(F)F)cc2)sc1COc1ccc([C@H](CC(=O)O)c2ccon2)cc1
2.26

So what does the record say about inhibition for COc1cc(C(=O)NS(=O)(=O)c2ccccc2C)ccc1Cc1cn(C)c2ccc(NC(=O)OC3CCCC3)cc12 ?
28.2

Quick one: inhibition for N#Cc1ccc(O[C@@H]2c3ccccc3C[C@H]2N2CCC[C@@H](N)C2)c(Cl)c1 ?
3.73

# lookup: inhibition of CN(C)CCCc1cc(C(=O)Nc2ccc(-c3ccncc3)cc2)ccc1O
8.82

Fill in: inhibition of CC(=O)Nc1nc2c(Oc3cc(-c4ccc(C(F)(F)F)cc4)ncn3)cccc2s1 is ___
-1.88

Requested field: inhibition. Item: COc1cc(Nc2nccc(-c3cnn4nc(OC)ccc34)n2)cc(C(F)(F)F)c1
-0.842
